Target: thrombin (alpha-thrombin) (Homo sapiens) (UniProt P00734+P00734)
Assay: filter
Details: 2'-OMe inosine at 25, rest DNA [25 = 2'-OMe inosine (written as parent base G); rest DNA]
measurement-type: Kd (nM)

>>> recorded_measurement("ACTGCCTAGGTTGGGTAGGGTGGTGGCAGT [ARC2698]")
0.165

====

Biological target: thrombin (alpha-thrombin) (Homo sapiens) (UniProt P00734+P00734)
Test: filter
Conditions: 2'-OMe inosine at 29, rest DNA [29 = 2'-OMe inosine (written as parent base G); rest DNA]
pKd: −log10 of the molar value.
measurement-type: pKd

>>> recorded_measurement("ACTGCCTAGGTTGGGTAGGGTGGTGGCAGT [ARC2700]")
10.34
